Where these numbers come from: paper PMC12052392

# tgt: SARS-CoV-2 spike (S) protein, full-length, expressed on the surface of HEK-293T cells (SARS-CoV-2 prototype (MN908947.3), UniProt P0DTC2)
# measurementNotes: flow cytometry on cells
# runConditions: one partner purified

# binder, binding result
records = [
    ("nanobody H145 (VHH, also called anti-SH nNb H145; not shown: His6, C-terminal, kept) VHH: QVQLVESGGGLVQTGGSLRLSCEASGSAFSSYAVNWYRQAPGKQREPVAAIGSFNTVYSDSVKGRFTISRDNAKNTVYLQMNSLKPEDTAVYICNARRGATNTWGQGTQVTVSS", "binds"),
    ("nanobody H177 (VHH, not shown: His6, C-terminal, kept) VHH: QVQLVESGGGRVPPGGSLRLSCVASGFYWDYFVISWFRQAPGKEREWVSCIRSATDSANYADFVKGRFTISRENGKSTVYLQMNSLTPEDTAVYRCAVAYGTSWCRNPADMNYWGKGTLVTVSS", "binds"),
]
